# assay target: Decaprenylphosphoryl-beta-D-ribose oxidase (Mycobacterium tuberculosis (strain ATCC 25618 / H37Rv)) (UniProt P9WJF1)
# Sequence (P9WJF1 whole entry): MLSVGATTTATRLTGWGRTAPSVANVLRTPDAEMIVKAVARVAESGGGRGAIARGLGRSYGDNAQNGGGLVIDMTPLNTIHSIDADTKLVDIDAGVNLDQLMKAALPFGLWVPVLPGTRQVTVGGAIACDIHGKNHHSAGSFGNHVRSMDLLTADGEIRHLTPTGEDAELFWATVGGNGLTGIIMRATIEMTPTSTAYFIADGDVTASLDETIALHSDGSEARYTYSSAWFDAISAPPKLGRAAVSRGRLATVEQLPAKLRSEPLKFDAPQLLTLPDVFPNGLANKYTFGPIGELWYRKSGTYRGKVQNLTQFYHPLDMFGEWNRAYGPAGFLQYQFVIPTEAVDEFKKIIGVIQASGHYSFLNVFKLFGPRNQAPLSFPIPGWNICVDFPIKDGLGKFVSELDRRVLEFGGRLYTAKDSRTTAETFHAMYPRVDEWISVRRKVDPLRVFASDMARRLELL
# assay details: Inhibition of Mycobacterium tuberculosis H37Rv DprE1 at 100 times of MIC incubated for 24 hrs by [14C]-acetate radioligand based thin layer chromatography
Active and inactive are the calls of the source. The rule behind the calls is not given here.
assay endpoint: inhibition

{"structure notation": "C[C@H]1COC2(CCN(c3nc(=O)c4cc(C(F)(F)F)cc([N+](=O)[O-])c4s3)CC2)O1", "assay endpoint": "inhibition", "value": "Active"}
{"structure notation": "C[C@H]1COC2(CCN(C(=O)c3sc4c([N+](=O)[O-])cc(C(F)(F)F)cc4[n+]3[O-])CC2)O1", "assay endpoint": "inhibition", "value": "Active"}
{"structure notation": "COc1ccc(CNC(=O)c2nc3cc(C(F)(F)F)cc([N+](=O)[O-])c3s2)cc1", "assay endpoint": "inhibition", "value": "Active"}
{"structure notation": "O=c1nc(N2CCN(CC3CCCCC3)CC2)sc2c([N+](=O)[O-])cc(C(F)(F)F)cc12", "assay endpoint": "inhibition", "value": "Active"}
{"structure notation": "O=C(NCc1ccc(N2CCC(c3ccc(OC(F)(F)F)cc3)CC2)cc1)c1nc2cc(C(F)(F)F)cc([N+](=O)[O-])c2s1", "assay endpoint": "inhibition", "value": "Active"}

The values you see were collected from ChEMBL document CHEMBL4673200.
